- Tested target: Arginase-2, mitochondrial (Homo sapiens)
- Sequence (whole entry): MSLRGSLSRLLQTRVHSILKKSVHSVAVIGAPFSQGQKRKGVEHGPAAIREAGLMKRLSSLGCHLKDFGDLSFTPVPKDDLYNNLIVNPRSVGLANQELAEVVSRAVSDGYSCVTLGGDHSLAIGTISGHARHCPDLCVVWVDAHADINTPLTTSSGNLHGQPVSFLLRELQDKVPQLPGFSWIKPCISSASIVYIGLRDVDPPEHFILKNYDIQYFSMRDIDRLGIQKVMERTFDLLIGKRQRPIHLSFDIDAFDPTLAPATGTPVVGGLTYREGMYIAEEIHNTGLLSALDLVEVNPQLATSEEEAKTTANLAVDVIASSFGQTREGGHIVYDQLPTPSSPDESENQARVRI
- Procedure details: in vitro enzyme assay to detect the production of urea directly proportional to the activity of Arginase II; also: in the data most compounds retested in dose-response had high values
- Assay type: functional
- Design: scale not given: direction of the effect not stated beside the values
- Particulars: 33.3 µM
Listed molecules paired with reported Percent Effect
Express it in %; write the number only.

Worked examples, 6 molecules total:
Cc1nc[nH]c1CN1C[C@@H]2CC[C@H](C1)N(C(=O)CCNS(C)(=O)=O)C2 ... 17.7
CSc1nccn1-c1cccc(C(=O)NCCCN2CCOCC2)c1 ... -2.52
CN(Cc1ccco1)C[C@H]1OC[C@@H]2CCN(Cc3nccs3)C[C@@H]21 ... -45
CC(C)c1n[nH]c(C2CN(Cc3nnc(C4CC4)o3)CCO2)n1 (stereo not given) ... -8.37
CC(C)(C)C(=O)N1CCCC1c1nc(O)cc(-c2ccccn2)n1 (stereo not given) ... -1.62
CCc1nnc2n1CCN(C(=O)C(C)COCc1ccccc1)C2 (stereo not given) ... -1.44

Ask: Please look up its Percent Effect: O=C(NC1CCCC1)[C@@H]1CN(Cc2nccs2)C[C@H]2OCC[C@H]21
Reply: 1.63

----------
Quick reference: Percent Effect of the listed items.
- Tested target: Chromo domain-containing protein 1 (Saccharomyces cerevisiae (strain ATCC 204508 / S288c) (Baker's yeast)) (UniProt P32657)
- Sequence (P32657 whole entry, the tested form may be a part): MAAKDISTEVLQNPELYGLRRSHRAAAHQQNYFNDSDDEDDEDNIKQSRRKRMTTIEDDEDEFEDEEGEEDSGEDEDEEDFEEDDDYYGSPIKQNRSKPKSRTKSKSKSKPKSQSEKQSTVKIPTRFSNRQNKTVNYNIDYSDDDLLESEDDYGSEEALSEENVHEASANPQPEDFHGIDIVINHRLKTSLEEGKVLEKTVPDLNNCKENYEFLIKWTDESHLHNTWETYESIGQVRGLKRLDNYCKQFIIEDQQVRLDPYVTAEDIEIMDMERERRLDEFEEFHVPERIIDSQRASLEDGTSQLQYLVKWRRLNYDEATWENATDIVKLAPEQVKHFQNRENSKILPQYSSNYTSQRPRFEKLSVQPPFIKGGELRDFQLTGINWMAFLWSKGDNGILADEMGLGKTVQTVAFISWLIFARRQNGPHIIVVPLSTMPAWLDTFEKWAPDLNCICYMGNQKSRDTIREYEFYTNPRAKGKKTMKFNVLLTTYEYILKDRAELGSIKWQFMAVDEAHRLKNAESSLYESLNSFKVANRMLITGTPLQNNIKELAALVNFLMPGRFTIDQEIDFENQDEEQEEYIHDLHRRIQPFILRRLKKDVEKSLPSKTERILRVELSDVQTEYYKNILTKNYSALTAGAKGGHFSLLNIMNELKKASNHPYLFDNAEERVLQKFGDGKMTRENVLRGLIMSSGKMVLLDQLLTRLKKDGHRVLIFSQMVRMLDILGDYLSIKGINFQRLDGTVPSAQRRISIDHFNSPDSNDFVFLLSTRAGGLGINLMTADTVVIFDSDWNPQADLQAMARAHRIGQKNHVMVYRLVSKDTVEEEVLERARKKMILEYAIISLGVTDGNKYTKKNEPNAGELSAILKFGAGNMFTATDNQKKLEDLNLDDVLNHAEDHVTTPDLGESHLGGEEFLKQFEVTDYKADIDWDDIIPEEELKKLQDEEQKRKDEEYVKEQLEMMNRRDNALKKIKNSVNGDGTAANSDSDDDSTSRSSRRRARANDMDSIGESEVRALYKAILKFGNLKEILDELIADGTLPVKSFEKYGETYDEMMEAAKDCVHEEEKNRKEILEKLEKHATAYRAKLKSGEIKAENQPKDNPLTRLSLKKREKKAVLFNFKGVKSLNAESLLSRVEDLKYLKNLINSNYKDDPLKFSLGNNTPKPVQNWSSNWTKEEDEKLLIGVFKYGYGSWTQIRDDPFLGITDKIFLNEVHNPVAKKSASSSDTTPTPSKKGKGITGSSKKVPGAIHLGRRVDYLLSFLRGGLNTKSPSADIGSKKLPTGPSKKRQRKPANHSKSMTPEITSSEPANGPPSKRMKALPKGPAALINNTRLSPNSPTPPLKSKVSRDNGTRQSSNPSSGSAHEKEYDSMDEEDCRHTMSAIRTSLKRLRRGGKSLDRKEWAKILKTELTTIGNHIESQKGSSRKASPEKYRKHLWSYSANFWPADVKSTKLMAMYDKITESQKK
- Procedure details: ScCHD-1 Enzyme Inhibition Assay; also: in the data most compounds retested in dose-response had high values
- Format: functional
- Design: scale not given: direction of the effect not stated beside the values
- Particulars: 30 µM
Expressed in %, but write only the number.

Some solved entries appear below for comparison.
CCOC(C)c1nc(CN2CCNCC2)cs1 (stereo not given) ... -3.79
CCN(c1ccc(C(=O)NCCCN2CCOCC2)cc1)S(=O)(=O)CC ... -5.76
CCc1nnc2n1CC(CNCc1ccncc1)CC2 (stereo not given) ... -3.45
COc1ccc(CNC(=O)NC2CCN(CC(F)F)CC2)cc1C ... -4.89

Ask: Reported Percent Effect, molecule O=C(Nc1ccccn1)C1CC(=O)N(Cc2ccccn2)C1 (stereo not given) : ____
Reply: -4

----------
Measured Percent Effect of individual entries
- Tested on: Trypanosoma cruzi
- Procedure details: Trypanosoma cruzi phosphomannomutase and mannose-1-phosphate guanylyltransferase assay
- Format: functional
- Design: scale not given: direction of the effect not stated beside the values
- Particulars: 10 µM
Give just the number in %; leave the unit off.

Ask: I'd like to know its Percent Effect. The compound in question is Cn1ncc2c(=O)[nH]c(CN(Cc3cccc(F)c3)C3CC3)nc21
Reply: 8.05

Ask: Give its Percent Effect value. Item: COc1c(CNC2CCN(C(=O)C3CC3)CC2)c(C(C)C)nn1C
Reply: -4.95

Ask: Recorded Percent Effect for O=C(COCC1CC1)N1CCCC(n2cncn2)C1 (stereo not given) , please?
Reply: -3.3

Ask: Sample Cc1ccc(NC(=O)NC(C)C(=O)N2CCS(=O)(=O)CC2)cc1 (stereo not given) — what was its Percent Effect?
Reply: -1.74

Ask: Report Percent Effect for COc1cccc(OCC2CCCN(C(=O)c3cnc(C)nc3O)C2)c1 (stereo not given) please.
Reply: 5.02

Ask: Param item = Cc1nc(CN(C)C2CCN(CC3CCCCC3)C2)no1 (stereo not given) ; retrieve measured Percent Effect.
Reply: 4.55
